ASSAYED_TARGET: Autoinducer 2-binding periplasmic protein LuxP (Vibrio harveyi) (UniProt P54300)
Sequence (P54300 whole entry): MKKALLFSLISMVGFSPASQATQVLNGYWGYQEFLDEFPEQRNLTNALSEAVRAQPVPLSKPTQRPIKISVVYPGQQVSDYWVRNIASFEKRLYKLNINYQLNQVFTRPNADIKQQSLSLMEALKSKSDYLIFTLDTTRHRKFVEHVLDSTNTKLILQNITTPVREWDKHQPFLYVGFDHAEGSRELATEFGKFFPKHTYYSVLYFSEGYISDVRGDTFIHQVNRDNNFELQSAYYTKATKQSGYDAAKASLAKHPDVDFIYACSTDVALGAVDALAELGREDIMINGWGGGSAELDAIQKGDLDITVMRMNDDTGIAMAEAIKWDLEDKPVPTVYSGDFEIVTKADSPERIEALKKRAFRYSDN
PROTOCOL_DESCRIPTION: Agonist activity at Vibrio harveyi MM30 LuxP assessed as inhibition of autoinducer-2-induced quorum sensing
Format: functional
Calls of active or inactive are those of the source. The calls are words filed in the database; no cut-off is given here.
Field 'call' accepts 1.0 (active), 0.0 (inactive)

Q: Recorded test outcome, item CCCCCC(=O)C(=O)[C@@H](O)CO
Ans: 0.0

Q: Tell me the assay call for CCC(=O)C(=O)[C@@H](O)CO please.
Ans: 1.0

Others:
Q: # outcome recorded in this test, key = CCCC(=O)C(=O)[C@@H](O)CO
Ans: 0.0

Q: Name the outcome recorded for CCCCCCCC(=O)C(=O)[C@@H](O)CO in the assay.
Ans: 0.0

Q: Fill in: this test's call for CCCCCCC(=O)C(=O)[C@@H](O)CO is ___
Ans: 0.0

Q: Hi team, can someone confirm the assay call for CC(=O)C(=O)[C@@H](O)CO ?
Ans: 0.0

Q: Check the results log: what was the call for CCCCC(=O)C(=O)[C@@H](O)CO ?
Ans: 0.0

----------
ASSAYED_TARGET: Autoinducer 2-binding periplasmic protein LuxP (Vibrio harveyi)
Sequence (P54300 whole entry): as above
PROTOCOL_DESCRIPTION: Agonist activity at Vibrio harveyi BB170 LuxP assessed as inhibition of autoinducer-2-induced quorum sensing after 5 hrs by luminescence assay
MEASURED_METRIC: EC50 (nM)

Completed entries (count: 4):
Q: GET /values?readout=EC50&system=Autoinducer 2-binding periplasmic protein LuxP (Vibrio harveyi)&item= CCCC(=O)C(=O)[C@@H](O)CO
Ans: 750

Q: Hello, I am looking for reported EC50 with Autoinducer 2-binding periplasmic protein LuxP (Vibrio harveyi) for CCC(=O)C(=O)[C@@H](O)CO . Could you help?
Ans: 580

Q: Item: CCCCCCCC(=O)C(=O)[C@@H](O)CO Test system: Autoinducer 2-binding periplasmic protein LuxP (Vibrio harveyi) Read-out: EC50 Value: ?
Ans: 1810

Q: Which measured EC50 belongs to CCCCCC(=O)C(=O)[C@@H](O)CO , tested on Autoinducer 2-binding periplasmic protein LuxP (Vibrio harveyi)?
Ans: 1350

P = CCCCCCC(=O)C(=O)[C@@H](O)CO
Q = CC(=O)C(=O)[C@@H](O)CO
Q: // select label with min value of measured EC50 from [ P , Q ] Mark your answer with the label of the selected entry.
Ans: Q
(Q: 150 nM, P: 1520 nM)

All values here come from ChEMBL document CHEMBL1153604.
